Test system: purified secondary alcohol dehydrogenase
Experiment: Substrate and electron acceptor specificity of purified yeast secondary alcohol dehydrogenase
Assay type: biochemical, Pichia sp. NRRL Y-11,328
Conditions: examined spectrophotometrically
Parameter: Oxidation by the purified yeast enzyme (in words)

>  <Molecule>
CC(O)CO (centres unmarked)

>  <Result>
not oxidized

$$$$
>  <Molecule>
CC(C)O

>  <Result>
catalyzed the oxidation

$$$$
>  <Molecule>
CCCCO

>  <Result>
not oxidized

$$$$
>  <Molecule>
CCCCCC(C)O (centres unmarked)

>  <Result>
not oxidized

$$$$
>  <Molecule>
CCC(O)CO (centres unmarked)

>  <Result>
not oxidized

$$$$
>  <Molecule>
CCC(C)O (centres unmarked)

>  <Result>
catalyzed the oxidation

$$$$
>  <Molecule>
CCCCC(C)O (centres unmarked)

>  <Result>
catalyzed the oxidation

$$$$
>  <Molecule>
CCCCCO

>  <Result>
not oxidized

$$$$

---

System: secondary alcohol dehydrogenase (SADH)
Test: Substrate specificity and Michaelis constants of purified SADH
Format: biochemical, Pseudomonas sp. ATCC 21439

>  <Molecule>
CCCC(C)O (stereo not drawn) [2-pentanol]

>  <Oxidation by purified SADH (in words)>
oxidized at a lower rate

$$$$
>  <Molecule>
OC1CCCCC1 [cyclohexanol]

>  <Oxidation by purified SADH (in words)>
oxidized at a lower rate

$$$$
>  <Molecule>
CC(O)CCO (stereo not drawn) [butane 1,3-diol]

>  <Oxidation by purified SADH (in words)>
oxidized at a lower rate

$$$$
>  <Molecule>
O=C(O)CCC(=O)O [succinic acid]

>  <Oxidation by purified SADH (in words)>
not oxidized

$$$$
>  <Molecule>
CC(O)C(C)O (stereo not drawn) [butane 2,3-diol]

>  <Oxidation by purified SADH (in words)>
oxidized at a lower rate

$$$$
>  <Molecule>
CC=O [acetaldehyde]

>  <Oxidation by purified SADH (in words)>
oxidized at a lower rate

$$$$
>  <Molecule>
CCC(O)CO (stereo not drawn) [butane 1,2-diol]

>  <Oxidation by purified SADH (in words)>
not oxidized

$$$$
>  <Molecule>
CCCCC(C)O (stereo not drawn) [2-hexanol]

>  <Oxidation by purified SADH (in words)>
oxidized at a lower rate

$$$$
>  <Molecule>
CC(C)CO [isobutanol]

>  <Oxidation by purified SADH (in words)>
not oxidized

$$$$
